# System: U2OS
# protocol_description: Multiplex assay against U2OS
# Type: toxicity, cell-based
# particulars: human, 48 h, 10 µM, compound concentration 10 uM, replicate 1
Can you tell me Population Pyknosed Nuclei (%) for the items I'm about to list?
Numbers only, in %.

Look over these answered cases.
CN(c1cc(C(F)(F)F)nc(OCCC(=O)O)n1)c1cccc2c1CCC2 | 4
CCCCCNC(=N)N/N=C/c1c[nH]c2ccc(OC)cc12.O=C(O)/C=C\C(=O)O [TEGASEROD MALEATE] | 48
Oc1cccc(-c2nc(N3CCOCC3)c3oc4ncccc4c3n2)c1 [PI-103] | 38
C[C@@H](Oc1cc(-n2cnc3ccc(CN4CCN(C)CC4)cc32)sc1C(N)=O)c1ccccc1C(F)(F)F [GSK-461364] | 58
N#Cc1cccc(C(=O)Nc2cc(-c3ccccc3)nn2-c2ccccc2)c1 | 24
Cc1c(P(=S)(c2ccccc2)c2ccccc2)n2ccccc2[n+]1C/C=C/c1ccccc1.[Br-] | 53
CCCc1cc(C)[nH]c(=O)c1CNC(=O)c1cc(-c2ccc(N3CCN(C(C)C)CC3)nc2)cc2c1cnn2C(C)C | 57
CC(/C=C1\SC(=S)N(CCCC(=O)Nc2ccc(C(=O)O)c(O)c2)C1=O)=C\c1ccccc1 | 7

Batch request: Population Pyknosed Nuclei (%) for each of the following compounds.
1. Cc1ccc(S(=O)(=O)NC2c3ccccc3Oc3ccccc32)cc1
2. CC(C)c1cc(Nc2nc(N3CCC[C@H](N)C3)ncc2C(N)=O)cc(C(C)C)n1
3. Cc1c(Nc2ccc(S(=O)(=O)N3CCN(C)CC3)cc2F)nc2ccc(-c3cnn(C4CC4)c3)cn2c1=O

Key:
1: 6; 2: 58; 3: 8
